System: Rattus norvegicus
Test: Inhibitory activity against developing adjuvant-induced arthritis (Dev AA) in rat at 25 mg/kg concentration
Format: functional

>  <molecule>
CC(C)(C)c1cc(CCc2cccnc2)cc(C(C)(C)C)c1O

>  <assay.target>
Rattus norvegicus

>  <inhibition in vivo at 25 mg/kg [%]>
3

$$$$
>  <molecule>
CC(C)(C)c1cc(C(=O)c2cccs2)cc(C(C)(C)C)c1O [PRIFELONE]

>  <assay.target>
Rattus norvegicus

>  <inhibition in vivo at 25 mg/kg [%]>
96

$$$$
>  <molecule>
CC(C)c1cc(/C=C/c2cccnc2)cc(C(C)C)c1O

>  <assay.target>
Rattus norvegicus

>  <inhibition in vivo at 25 mg/kg [%]>
17

$$$$
>  <molecule>
CC(C)(C)c1cc(/C=C/c2ccc[n+]([O-])c2)cc(C(C)(C)C)c1O

>  <assay.target>
Rattus norvegicus

>  <inhibition in vivo at 25 mg/kg [%]>
26

$$$$
>  <molecule>
CCC(C)(C)c1cc(/C=C/c2cccs2)cc(C(C)(C)CC)c1O

>  <assay.target>
Rattus norvegicus

>  <inhibition in vivo at 25 mg/kg [%]>
40

$$$$
>  <molecule>
CC(C)(C)c1cc(/C=C/c2cccnc2)ccc1O

>  <assay.target>
Rattus norvegicus

>  <inhibition in vivo at 25 mg/kg [%]>
3

$$$$
>  <molecule>
CCC(C)(C)c1cc(/C=C/c2cccnc2)cc(C(C)(C)CC)c1O

>  <assay.target>
Rattus norvegicus

>  <inhibition in vivo at 25 mg/kg [%]>
50

$$$$
>  <molecule>
Cc1cc(/C=C/c2cccnc2)cc(C(C)(C)C)c1O

>  <assay.target>
Rattus norvegicus

>  <inhibition in vivo at 25 mg/kg [%]>
22

$$$$
>  <molecule>
CC(C)(C)c1cc(/C=C2\CCOC2=O)cc(C(C)(C)C)c1O

>  <assay.target>
Rattus norvegicus

>  <inhibition in vivo at 25 mg/kg [%]>
63

$$$$

---

Target: Cyclooxygenase (Homo sapiens, UniProt P35354+P23219)
Test: Inhibitory activity against Prostaglandin G/H synthase at 10 uM concentration
Type: protein assay
Class assignment keyed on inhibition, ranges group 1 (below 50%), group 2 (50% to below 80%), group 3 (80% or more)

>  <smi>
CC(C)(C)c1cc(C(=O)/C=C/c2ccsc2)cc(C(C)(C)C)c1O

>  <category.label>
group 3

$$$$
>  <smi>
CC(C)(C)c1cc(/C=C/c2ccc[n+]([O-])c2)cc(C(C)(C)C)c1O

>  <category.label>
group 2

$$$$
>  <smi>
CC(C)(C)c1cc(/C=C/c2cccc(C(F)(F)F)c2)cc(C(C)(C)C)c1O

>  <category.label>
group 1

$$$$
>  <smi>
Cc1ccc(/C=C/c2cc(C(C)(C)C)c(O)c(C(C)(C)C)c2)cc1

>  <category.label>
group 2

$$$$
>  <smi>
CC(C)(C)c1cc(/C=C/c2ccc(Cl)c(Cl)c2)cc(C(C)(C)C)c1O

>  <category.label>
group 1

$$$$
>  <smi>
CC(C)(C)c1cc(/C=C/c2ccc(Cl)cc2)cc(C(C)(C)C)c1O

>  <category.label>
group 2

$$$$
>  <smi>
CC(C)(C)c1cc(/C=C/c2ccc(F)cc2)cc(C(C)(C)C)c1O

>  <category.label>
group 2

$$$$
>  <smi>
CC(C)(C)c1cc(/C=C/C(=O)c2cccs2)cc(C(C)(C)C)c1O

>  <category.label>
group 2

$$$$
>  <smi>
Oc1ccc(/C=C/c2cccnc2)cc1

>  <category.label>
group 1

$$$$
>  <smi>
CC(C)(C)c1cc(C(=O)/C=C/c2cccs2)cc(C(C)(C)C)c1O

>  <category.label>
group 3

$$$$
>  <smi>
CC(C)(C)c1cc(/C=C/c2ccccc2C(=O)O)cc(C(C)(C)C)c1O

>  <category.label>
group 2

$$$$
